molecular target: T1, Human IL-13 (human, UniProt P35225 35-146); test: biochemical receptor-ligand inhibition assay, purified scFv titrated; the IL-13 receptor used is not named in Example 1
T1 construct: also called human interleukin 13 (Peprotech); the antigen
T1 sequence (P35225 35-146 limits assumed): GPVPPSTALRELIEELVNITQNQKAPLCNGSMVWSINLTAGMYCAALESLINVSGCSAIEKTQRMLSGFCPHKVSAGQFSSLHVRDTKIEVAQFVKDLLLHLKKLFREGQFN
EXPERIMENTAL ENDPOINT: IC50 (nM)
Give the number; nM is assumed, so skip it.

Before answering, review these 2 worked examples.
13NG0068 (scFv, V domains shown, purified scFv from the mini-recombination library; member of group m20; also called ZZ0SEB-B02; copies: 1 + 1) VH: QVQLVQSGAEVKKPGASVKVSCKASGYTFTNYGLSWVRQAPGQGLEWVGWINYDGGNTQYGQEFQGRVTMTTDTSTGTAYMELRSLRSDDTAVYYCARDSSSSWARWFFDLWGRGTLVTVSS VL: SYVLTQPPLVSVAPGKTARIPCGGNLIGARLVHWYQQKPGQAPVLIIMDDIDRPSGIPERFSGSNSGNTATLTISRVEAGDEADYYCQVWDTGSDPVVFGGGTKLTVL | 5.42
13NG0067 (scFv, V domains shown, purified scFv from the mini-recombination library; member of group m20; also called ZZ0SEF-H04; copies: 1 + 1) VH: QVQLVQSGAEVKKPGASVKVSCKASGYTFTNYGLSWVRQAPGQGLEWMGWINYDGGNTQYGQEFQGRVTMTTDTSTSTAYMELRGLRSDDTAVYYCARDSSSSWARWFFDLWGRGTLVTVSS VL: SYVLTQPPSVSVAPGKTARIPCGGNMVGARLVHWYQQKPGQAPVLIIMDDIDRPSGIPERFSGSNSGNTATLTISRVEAGDEADYYCQVWDTGSSPVVFGGGTKLTVL | 6.63

Pending binder:
Exercise: Any idea what IC50 was measured for 13NG0071 (scFv, V domains shown, purified scFv from the mini-recombination library; member of group m20; also called ZZ0SEE-A09; copies: 1 + 1) VH: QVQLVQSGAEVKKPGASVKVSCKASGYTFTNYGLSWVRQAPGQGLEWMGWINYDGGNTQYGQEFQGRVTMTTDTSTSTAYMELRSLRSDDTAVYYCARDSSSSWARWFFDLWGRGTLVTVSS VL: SYVLTQPPSVSVAPGKTARIPCGGNMVGARLVHWYQQKPGQAPVLIVFDDEDRPSGIPERFSGSNSGNTATLTISRVEAGDEADYYCQVWDTGSLPVVFGGGTKLTVL ?
Solution: 10.7
